system: NCI-H322M lung; test: NCI-60 one-dose screen, 48 h; settings: 10 µM unless noted
The panel holds about 83,000 compounds, 20% with a hit somewhere; the sample as a whole holds those more often. The source made the active and inactive calls. How the source made its calls: active means growth percent below 10; inactive means the rest.
Just give me one of these, please: active, inactive

compound	subject of test	answer label
COc1ccccc1CNCCCN1C(=O)c2ccc3c4c(ccc(c24)C1=O)C(=O)N(CCCNCc1ccccc1OC)C3=O	NCI-H322M lung	active
O=c1[nH]c2cc(O)ccc2n2cc3c(F)cccc3c12	NCI-H322M lung	inactive
CNc1ccc(Nc2ccc(S(=O)(=O)O)cc2)c2c1C(=O)c1ccccc1C2=O	NCI-H322M lung	inactive
Cc1ccc(C(=O)C(Br)C(Br)c2ccccc2)cc1 (centres undefined)	NCI-H322M lung	inactive
COc1cc(-c2nc3c(c(C)nc4c3nnn4-c3ccccc3)c(=O)o2)cc(OC)c1OC	NCI-H322M lung	inactive

Request: State the result this test recorded for "CC(C)CSc1nc(-c2ccc(F)cc2)c(C#N)c(N2CCCCC2)n1" .
Response: inactive

Request: State the result this test recorded for "COc1ccc2c(N)ncc(C#Cc3cc(C(=O)Nc4ccc(CN5CCN(C)CC5)c(C(F)(F)F)c4)cnc3C)c2c1" .
Response: inactive

Request: State the result this test recorded for "O=C(N/N=C\c1ccc(Cl)cc1)C(=O)N/N=C\c1ccc(Cl)cc1" .
Response: inactive

Request: State the result this test recorded for "COC1=CC(c2ccc[nH]2)=N/C1=C\c1[nH]c(C)c(C(=O)CCCCC(=O)NC(C)(C)C)c1C" .
Response: inactive

Request: State the result this test recorded for "CCCCCCCCCc1cc[n+](CC(=O)c2ccc([N+](=O)[O-])cc2)cc1" .
Response: inactive

Request: State the result this test recorded for CC(O)CCC(C)[N+](=O)[O-] (centres undefined) .
Response: inactive

Request: State the result this test recorded for "Cc1c(O)c(N=Nc2ccc(C(=O)O)c(O)c2)c2ccccc2c1O" .
Response: inactive

Request: State the result this test recorded for "O=C(NCCNCCO)c1cc([N+](=O)[O-])cc([N+](=O)[O-])c1O" .
Response: inactive

Request: State the result this test recorded for "O=C1N/C(=N\c2nnc(-c3ccc(O)cc3)s2)S/C1=C\c1ccccc1O" .
Response: inactive

Request: State the result this test recorded for "N=C(N)N=Nc1ccc(NN=C(N)N)cc1" .
Response: inactive

Request: State the result this test recorded for COc1cc(NC(C)CCCN)c2nccc(C)c2c1OC (centres undefined) .
Response: inactive

Request: State the result this test recorded for "CCCCN(CCCC)CCCNc1c2c(nc3ccc(Cl)cc13)CCCC2" .
Response: inactive

Request: State the result this test recorded for "COC(=O)c1ccc2[nH]c(O)c(C(=Nc3ccc(N(C)C(=O)CN4CCN(C)CC4)cc3)c3ccc(OC)cc3)c2c1" .
Response: inactive

Request: State the result this test recorded for "Clc1ccc(N/N=C(\c2ccccc2)c2ccccn2)nc1" .
Response: inactive

Request: State the result this test recorded for CC(CCN1CCN(CCC(C)CC(C)(C)C)C1CC(C)CC(C)(C)C)CC(C)(C)C (centres undefined) .
Response: inactive

----------
system: IGROV1 ovarian; test: NCI-60 one-dose screen, 48 h; conditions: 10 µM unless noted
About 83,000 compounds went through this panel and 20% of them were active in at least one assay; those are over-represented in the sample as a whole. The source made the active and inactive calls. Rule for the calls: active = growth percent below 10; inactive = the rest.
Just give me one of these, please: Y for active, N for inactive

Request: State the result this test recorded for "Oc1ccc(Br)cc1/C=N/NC(=S)NC12CC3CC(CC(C3)C1)C2" .
Response: Y

Request: State the result this test recorded for "CC(=O)Nc1nc(C)c(C(=O)NN)s1" .
Response: N
